- experimental-target: Nav1.7 (or SCN9A) channel (Homo sapiens)
- Construct: expressed in transfected cells
- procedure-text: Nav1.7 (hSCN9A) block in HEK cells, PatchXpress 7000 automated electrophysiology, estimated IC50 (EIC50)
- Assay type: cell-based
- test-settings: PatchXpress assay; HEK cells stably transfected with hSCN9A, voltage-clamped at V1/2 of inactivation
quantity-name: IC50 (nM)
Just the number in nM, nothing appended.

{"columns": ["compound", "IC50 / nM"],
 "data": [
  ["CS(=O)(=O)NC(=O)c1cc(F)c(Oc2cnc(OCCC(F)(F)F)c(Cl)c2)cc1F", 240],
  ["CC(C)Oc1ncc(Oc2ccc(C(=O)NS(C)(=O)=O)cc2)cc1Cl", 850]
]}

Reported IC50 for CC(C)Oc1ncc(Oc2c(F)cc(C(=O)NS(C)(=O)=O)cc2F)cc1Cl : what is it? 340

Reported IC50 for CN(CC1CC1)c1ncc(Oc2cc(F)c(C(=O)NS(C)(=O)=O)cc2F)cc1Cl : what is it? 270

Reported IC50 for CS(=O)(=O)NC(=O)c1cc(Cl)c(Oc2cnc(OCCC(F)(F)F)c(Cl)c2)cc1F : what is it? 50

Reported IC50 for CS(=O)(=O)NC(=O)c1cc(Cl)c(Oc2cnc(C3CCC3)c(Cl)c2)cc1F : what is it? 19

Reported IC50 for CCN(CC)c1ncc(Oc2cc(F)c(C(=O)NS(C)(=O)=O)cc2F)cc1Cl : what is it? 220

Reported IC50 for CN(c1ncc(Oc2cc(F)c(C(=O)NS(C)(=O)=O)cc2F)cc1Cl)C1CCOC1 (stereo not shown) : what is it? 2600

Reported IC50 for CC(C)(O)c1ncc(Oc2cc(F)c(C(=O)NS(C)(=O)=O)cc2Cl)cc1Cl : what is it? 3500

* * *

- experimental-target: Nav1.7 (or SCN9A) channel (Homo sapiens)
- Construct: expressed in transfected cells
- procedure-text: Nav1.7 (hSCN9A) block in HEK cells, Ionworks Quattro automated electrophysiology
- Assay type: cell-based
- test-settings: Ionworks Quattro assay (IW); HEK cells stably transfected with hSCN9A; read-out: Nav1.7 EIC50 (IW)
quantity-name: IC50

Solved entries:
{"columns": ["smiles-code", "IC50"],
 "data": [
  ["CS(=O)(=O)NC(=O)c1ccc(Oc2nccc3ccccc23)c(Cl)c1", "> 323 µM"],
  ["Cc1cc(Oc2cc(F)c(C(=O)NS(C)(=O)=O)cc2F)nc(C)n1", "> 323 µM"],
  ["CS(=O)(=O)NC(=O)c1ccc(Oc2cncnc2)c(Cl)c1", "> 323 µM"],
  ["CCc1ccc(Oc2ccc(C(=O)NS(C)(=O)=O)c(C)c2)cn1", "300 µM"],
  ["COc1c(C(=O)NS(C)(=O)=O)ccc(Oc2ccc(Oc3ccc(F)cc3)nc2)c1F", "121 µM"]
]}

Reported IC50 for CS(=O)(=O)NC(=O)c1cc(F)c(Oc2ncc(Cl)cn2)cc1F : what is it? > 323 µM

Reported IC50 for CS(=O)(=O)NC(=O)c1cc(Cl)c(Oc2nccc3ccccc23)cc1F : what is it? > 323 µM

Reported IC50 for COc1c(C(=O)NS(C)(=O)=O)ccc(Oc2cnc(N3CCCCC3)nc2)c1F : what is it? 57.4 µM

Reported IC50 for Cc1cc(Oc2cc(F)c(C(=O)NS(C)(=O)=O)cc2F)ncn1 : what is it? > 323 µM

* * *

Items are presented alongside their recorded pIC50.
- experimental-target: Nav1.7 (or SCN9A) channel (Homo sapiens, UniProt Q15858)
- Construct: expressed in transfected cells
- Sequence (Q15858 whole entry): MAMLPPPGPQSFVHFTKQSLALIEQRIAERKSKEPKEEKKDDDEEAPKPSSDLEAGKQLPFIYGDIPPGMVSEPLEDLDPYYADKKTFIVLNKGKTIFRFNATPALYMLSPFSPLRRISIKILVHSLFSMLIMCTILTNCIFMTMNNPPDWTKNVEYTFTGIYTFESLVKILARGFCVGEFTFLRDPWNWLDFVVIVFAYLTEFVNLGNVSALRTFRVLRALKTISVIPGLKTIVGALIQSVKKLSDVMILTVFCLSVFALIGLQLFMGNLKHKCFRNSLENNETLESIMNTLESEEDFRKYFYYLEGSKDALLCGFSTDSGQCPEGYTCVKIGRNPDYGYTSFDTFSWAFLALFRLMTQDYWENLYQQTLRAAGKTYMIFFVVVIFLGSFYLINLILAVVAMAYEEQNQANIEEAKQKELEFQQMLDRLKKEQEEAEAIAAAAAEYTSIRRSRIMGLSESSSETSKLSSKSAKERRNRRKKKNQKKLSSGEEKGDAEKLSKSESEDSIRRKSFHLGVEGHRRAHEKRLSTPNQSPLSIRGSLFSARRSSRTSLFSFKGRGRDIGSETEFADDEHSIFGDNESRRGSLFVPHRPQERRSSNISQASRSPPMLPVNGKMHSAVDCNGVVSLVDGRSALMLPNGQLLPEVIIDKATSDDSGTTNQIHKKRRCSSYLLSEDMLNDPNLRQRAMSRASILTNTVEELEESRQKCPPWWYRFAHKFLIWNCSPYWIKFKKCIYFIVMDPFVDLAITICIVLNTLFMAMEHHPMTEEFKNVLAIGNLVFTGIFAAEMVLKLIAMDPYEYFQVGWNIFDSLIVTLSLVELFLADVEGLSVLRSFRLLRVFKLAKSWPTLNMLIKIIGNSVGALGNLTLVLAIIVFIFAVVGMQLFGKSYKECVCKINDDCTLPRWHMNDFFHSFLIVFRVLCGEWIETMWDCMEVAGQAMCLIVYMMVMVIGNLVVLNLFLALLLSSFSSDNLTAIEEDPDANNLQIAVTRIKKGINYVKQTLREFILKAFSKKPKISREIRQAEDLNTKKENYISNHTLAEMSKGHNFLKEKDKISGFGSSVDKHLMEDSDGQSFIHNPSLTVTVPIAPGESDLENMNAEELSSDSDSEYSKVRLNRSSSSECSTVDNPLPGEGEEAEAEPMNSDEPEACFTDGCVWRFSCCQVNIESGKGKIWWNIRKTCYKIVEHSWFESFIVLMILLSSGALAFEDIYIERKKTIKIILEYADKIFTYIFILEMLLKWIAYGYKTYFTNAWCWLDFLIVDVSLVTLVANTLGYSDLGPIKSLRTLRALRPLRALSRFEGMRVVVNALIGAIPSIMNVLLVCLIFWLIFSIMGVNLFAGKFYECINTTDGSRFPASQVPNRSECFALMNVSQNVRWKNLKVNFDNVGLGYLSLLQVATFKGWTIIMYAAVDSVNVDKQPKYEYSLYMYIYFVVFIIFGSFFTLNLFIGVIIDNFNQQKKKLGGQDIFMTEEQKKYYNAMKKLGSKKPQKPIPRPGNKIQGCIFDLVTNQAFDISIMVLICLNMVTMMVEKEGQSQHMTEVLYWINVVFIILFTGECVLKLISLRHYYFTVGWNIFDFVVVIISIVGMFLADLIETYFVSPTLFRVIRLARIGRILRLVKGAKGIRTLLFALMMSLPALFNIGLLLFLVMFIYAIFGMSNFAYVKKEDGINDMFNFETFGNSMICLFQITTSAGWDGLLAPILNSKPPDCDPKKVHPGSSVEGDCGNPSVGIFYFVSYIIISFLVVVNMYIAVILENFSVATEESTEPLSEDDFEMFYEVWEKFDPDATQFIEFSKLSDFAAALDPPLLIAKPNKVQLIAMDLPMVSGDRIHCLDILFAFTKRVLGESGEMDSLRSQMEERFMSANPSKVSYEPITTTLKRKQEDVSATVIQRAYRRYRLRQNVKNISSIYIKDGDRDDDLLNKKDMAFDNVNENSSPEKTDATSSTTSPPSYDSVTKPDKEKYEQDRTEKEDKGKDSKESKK
- procedure-text: Nav1.7 (hSCN9A) block in HEK cells, Ionworks Quattro automated electrophysiology
- Format: cell-based
- test-settings: Ionworks Quattro assay (IW); HEK cells stably transfected with hSCN9A; read-out: Nav1.7 EIC50 (IW)
When answering, recall that pIC50 equals minus log10 of the concentration in mol/L, and write that number alone.

Solved entries:
{"columns": ["smiles-code", "experimental-target", "pIC50"],
 "data": [
  ["CCCc1ccc(Oc2ccc(C(=O)NS(C)(=O)=O)cc2F)cn1", "Nav1.7 (or SCN9A) channel (Homo sapiens, UniProt Q15858)", 4.41],
  ["COc1cc(Oc2cc(F)c(C(=O)NS(C)(=O)=O)cc2F)ncn1", "Nav1.7 (or SCN9A) channel (Homo sapiens, UniProt Q15858)", 3.76],
  ["Cc1ncc(Oc2ccc(C(=O)NS(C)(=O)=O)cc2C(F)(F)F)cn1", "Nav1.7 (or SCN9A) channel (Homo sapiens, UniProt Q15858)", 4.00]
]}

Reported pIC50 for CS(=O)(=O)NC(=O)c1ccc(Oc2cc3ccccc3cn2)c(C#N)c1 : what is it? 4.39

Reported pIC50 for Cc1nccnc1Oc1cc(F)c(C(=O)NS(C)(=O)=O)cc1F : what is it? 3.63

* * *

- experimental-target: Nav1.7 (or SCN9A) channel (Homo sapiens)
- Construct: expressed in transfected cells
- procedure-text: Nav1.7 (hSCN9A) block in HEK cells, PatchXpress 7000 automated electrophysiology, estimated IC50 (EIC50)
- Assay type: cell-based
- test-settings: PatchXpress assay; HEK cells stably transfected with hSCN9A, voltage-clamped at V1/2 of inactivation
Structures can show the parent of a compound that is named as a salt.
Items are presented alongside their recorded pIC50.
When answering, recall that pIC50 equals minus log10 of the concentration in mol/L, and write that number alone.

Solved entries:
{"columns": ["compound", "numeric-value"],
 "data": [
  ["CC(C)COc1ncc(Oc2ccc(C(=O)NS(C)(=O)=O)cc2C#N)cc1Cl [Example 1]", 6.80],
  ["CS(=O)(=O)NC(=O)c1cc(F)c(Oc2ccc(C(F)(F)F)cn2)cc1F [Example 194]", 5.51],
  ["CS(=O)(=O)NC(=O)c1cc(F)c(Oc2cnc(C3CC3)c(Cl)c2)cc1F [Example 50]", 6.80],
  ["CC(C)Oc1ncc(Sc2cc(F)c(C(=O)NS(C)(=O)=O)cc2Cl)cc1Cl [Example 94]", 6.08],
  ["CS(=O)(=O)NC(=O)c1cc(Cl)c(Oc2cnc(OC3CCOCC3)c(Cl)c2)cc1F [Example 37]", 6.85],
  ["CC(F)(F)Oc1cc(Oc2cc(F)c(C(=O)NS(C)(=O)=O)cc2Cl)cnc1C1CC1 [Example 104, hydrochloride salt]", 7.17]
]}

From here, focus on the item given below.
Reported pIC50 for CC(C)(F)COc1ncc(Oc2cc(F)c(C(=O)NS(C)(=O)=O)cc2F)cc1Cl [Example 63] : what is it? 6.80

* * *

- experimental-target: Nav1.7 (or SCN9A) channel (Homo sapiens, UniProt Q15858)
- Construct: expressed in transfected cells
- procedure-text: Nav1.7 (hSCN9A) block in HEK cells, Ionworks Quattro automated electrophysiology
- Assay type: cell-based
- test-settings: Ionworks Quattro assay (IW); HEK cells stably transfected with hSCN9A; read-out: Nav1.7 EIC50 (IW)
quantity-name: IC50

Solved entries:
{"columns": ["smiles-code", "experimental-target", "quantity-name", "result"],
 "data": [
  ["Cc1cc(C#N)nc(Oc2cc(F)c(C(=O)NS(C)(=O)=O)cc2F)c1", "Nav1.7 (or SCN9A) channel (Homo sapiens, UniProt Q15858)", "IC50", "> 323 µM"],
  ["CS(=O)(=O)NC(=O)c1ccc(Oc2cncc3ccccc23)c(C#N)c1", "Nav1.7 (or SCN9A) channel (Homo sapiens, UniProt Q15858)", "IC50", "> 323 µM"]
]}

From here, focus on the item given below.
Form entry - test system: Nav1.7 (or SCN9A) channel (Homo sapiens, UniProt Q15858); read-out: IC50; compound: CCCc1ncc(F)c(Oc2cc(F)c(C(=O)NS(C)(=O)=O)cc2F)n1 > 323 µM

* * *

- experimental-target: Nav1.7 (or SCN9A) channel (Homo sapiens)
- Construct: expressed in transfected cells
- procedure-text: Nav1.7 (hSCN9A) block in HEK cells, PatchXpress 7000 automated electrophysiology, estimated IC50 (EIC50)
- Format: cell-based
- test-settings: PatchXpress assay; HEK cells stably transfected with hSCN9A, voltage-clamped at V1/2 of inactivation
Items are presented alongside their recorded pIC50.
When answering, recall that pIC50 equals minus log10 of the concentration in mol/L, and write that number alone.

Solved entries:
{"columns": ["smiles-code", "experimental-target", "numeric-value"],
 "data": [
  ["CS(=O)(=O)NC(=O)c1cc(Cl)c(Cc2cnc(C3CC3)c(Cl)c2)cc1F", "Nav1.7 (or SCN9A) channel (Homo sapiens)", 6.33],
  ["CS(=O)(=O)NC(=O)c1cc(F)c(Oc2cnc(OC(CF)CF)c(Cl)c2)cc1F", "Nav1.7 (or SCN9A) channel (Homo sapiens)", 5.82],
  ["CC(C)N(C)c1ncc(Oc2cc(F)c(C(=O)NS(C)(=O)=O)cc2F)cc1Cl", "Nav1.7 (or SCN9A) channel (Homo sapiens)", 6.68]
]}

Reported pIC50 for COC[C@H](C)Nc1ncc(Oc2cc(F)c(C(=O)NS(C)(=O)=O)cc2F)cc1Cl : what is it? 6.05

Reported pIC50 for CS(=O)(=O)NC(=O)c1cc(Cl)c(Oc2cnc(OC(CF)CF)c(Cl)c2)cc1F : what is it? 6.59

Reported pIC50 for CS(=O)(=O)NC(=O)c1ccc(Nc2cnc(OC(C(F)(F)F)C(F)(F)F)c(Cl)c2)cc1 : what is it? 6.40

Reported pIC50 for CS(=O)(=O)NC(=O)c1cc(Cl)c(Oc2cnc(C3CC3)c(OC(F)F)c2)cc1F : what is it? 5.96

Reported pIC50 for CC(C)COc1ncc(Oc2ccc(C(=O)NS(C)(=O)=O)c(F)c2)cc1Cl : what is it? 7.30

Reported pIC50 for COc1ncc(Oc2cc(F)c(C(=O)NS(C)(=O)=O)cc2F)cc1Cl : what is it? 5.01

Reported pIC50 for CS(=O)(=O)NC(=O)c1cc(F)c(Oc2cnc(N3CCCC3)c(Cl)c2)cc1F : what is it? 7.12
